target_or_test_system: human M4 muscarinic acetylcholine receptor (Homo sapiens, UniProt P08173)
Sequence (P08173 1-479): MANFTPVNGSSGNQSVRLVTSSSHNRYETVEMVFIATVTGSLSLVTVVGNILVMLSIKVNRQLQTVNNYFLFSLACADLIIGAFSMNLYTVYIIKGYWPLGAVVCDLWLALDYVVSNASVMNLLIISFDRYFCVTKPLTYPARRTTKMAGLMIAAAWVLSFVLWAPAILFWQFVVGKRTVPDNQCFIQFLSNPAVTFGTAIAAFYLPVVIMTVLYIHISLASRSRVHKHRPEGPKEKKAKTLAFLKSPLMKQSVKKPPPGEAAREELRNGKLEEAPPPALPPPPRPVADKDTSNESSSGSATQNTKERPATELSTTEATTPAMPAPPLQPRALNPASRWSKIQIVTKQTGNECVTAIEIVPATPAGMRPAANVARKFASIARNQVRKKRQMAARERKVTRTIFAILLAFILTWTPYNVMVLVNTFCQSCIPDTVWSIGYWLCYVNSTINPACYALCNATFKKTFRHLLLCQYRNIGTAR
protocol_description: human FLIPR-based M4 PAM assay (CHO-K1 cells with human M4 receptor and Gαqi5, calcium dye fluorescence, EC20 acetylcholine)
condition_info: inflection point (IP) of the dose response curve, human M4 receptor/Gαqi5, acetylcholine at 20% of maximum response, read-out: M4PAM Hu IP
Method: In a typical experiment the M4 muscarinic acetylcholine receptor modulating activity of the compounds of the present invention was determined in accordance with the following experimental method. […] Following dye loading the cell plates are placed in a FLIPR Tetra instrument and while monitoring dye fluorescence (excitation […]), 10 uL of test substance at increasing concentrations is added, and fluorescence values are recorded for 4 min. […]
# log10(EC50) listing for each entry below
Form field - Quantity: EC50; Unit: nM; Scale: log10

Known results for compounds:
Cc1ccc(-c2cnn(CC34CC5CC(CC(C5)C3)C4)c2)c(-c2ccc3cccnc3c2)n1 [Example 12]: 1.90
Cc1ccc(-c2cnn(CC34CC(C3)C4)c2)c(-c2ccc3cccnc3c2)n1 [Example 9]: 1.32
CC(C)CCn1cc(-c2ccc(C3CC3)nc2-c2ccc3cccnc3c2)cn1 [Example 70]: 2.37

Specify the recorded log10(EC50) for COc1cc2ccc(-c3nc(C)ccc3-c3cnn(CCC(C)(C)F)c3F)cc2nn1 [Example 36] , system: human M4 muscarinic acetylcholine receptor (Homo sapiens, UniProt P08173).
1.15

# return log10(EC50) of CC(C)(C)Cn1cc(-c2ccc(C#N)nc2-c2ccc3ccnnc3c2)cn1 [Example 43] (system: human M4 muscarinic acetylcholine receptor (Homo sapiens, UniProt P08173))
2.05

Give log10(EC50) for COc1cc2ccc(-c3nc(C(F)F)ccc3-c3cnn(CC(C)(C)F)c3)cc2nn1 [Example 115] tested on human M4 muscarinic acetylcholine receptor (Homo sapiens, UniProt P08173).
2.28

Tell me its log10(EC50) on human M4 muscarinic acetylcholine receptor (Homo sapiens, UniProt P08173): Cc1ccc(-c2cnn(CC3CC3(C)C)c2)c(-c2ccc3cccnc3c2)n1 (centres unmarked) [Example 101]
2.00

Name the recorded log10(EC50) of N#Cc1ccc(-c2cnn(CC3CC34CC4)c2)c(-c2ccc3cccnc3c2)n1 (centres unmarked) [Example 29] , assay system human M4 muscarinic acetylcholine receptor (Homo sapiens, UniProt P08173).
1.86
